Each record here notes measured pEC50.
# STUDY_TARGET: 5-HT2A receptor (Homo sapiens)
# Construct: gene HTR2A; full-length human recombinant receptor in CHO-K1 cells (Ogeda); crude membranes
# Sequence (P28223 whole entry): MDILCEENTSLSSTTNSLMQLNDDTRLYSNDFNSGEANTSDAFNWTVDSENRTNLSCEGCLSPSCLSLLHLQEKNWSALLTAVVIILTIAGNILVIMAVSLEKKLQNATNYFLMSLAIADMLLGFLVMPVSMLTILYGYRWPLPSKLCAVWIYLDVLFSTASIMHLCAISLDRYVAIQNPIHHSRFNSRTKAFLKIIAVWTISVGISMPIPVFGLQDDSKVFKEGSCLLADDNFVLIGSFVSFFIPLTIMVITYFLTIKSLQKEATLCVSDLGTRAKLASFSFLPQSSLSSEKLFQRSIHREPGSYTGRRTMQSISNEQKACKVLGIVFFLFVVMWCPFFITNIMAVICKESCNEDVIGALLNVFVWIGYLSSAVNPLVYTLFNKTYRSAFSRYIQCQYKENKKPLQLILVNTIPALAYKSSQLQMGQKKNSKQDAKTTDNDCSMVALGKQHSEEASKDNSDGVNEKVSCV
# METHOD_NOTES: cell-based
# Set-up: species or system CHO-K1; IPOne HTRF agonist assay, IP1 accumulation in adherent transfected cells
pEC50: −log10 of the molar value. Where a name gives a salt, the structure may show the parent alone.

# COMPOUND, pEC50
rows = [
    ("CN(C)CCc1c[nH]c2ccc(Cn3cncn3)cc12 [Rizatriptan benzoate]", "< 5.00"),
    ("CN(C)[C@@H]1CCc2[nH]c3ccc(NC(=O)c4ccc(F)cc4)cc3c2C1 [LY344864 hydrochloride]", "< 5.00"),
]

###

# STUDY_TARGET: 5-HT1F receptor (Homo sapiens, UniProt P30939)
# Construct: gene HTR1F; full-length human recombinant receptor in CHO-K1 cells (Ogeda)
# Sequence (P30939 whole entry): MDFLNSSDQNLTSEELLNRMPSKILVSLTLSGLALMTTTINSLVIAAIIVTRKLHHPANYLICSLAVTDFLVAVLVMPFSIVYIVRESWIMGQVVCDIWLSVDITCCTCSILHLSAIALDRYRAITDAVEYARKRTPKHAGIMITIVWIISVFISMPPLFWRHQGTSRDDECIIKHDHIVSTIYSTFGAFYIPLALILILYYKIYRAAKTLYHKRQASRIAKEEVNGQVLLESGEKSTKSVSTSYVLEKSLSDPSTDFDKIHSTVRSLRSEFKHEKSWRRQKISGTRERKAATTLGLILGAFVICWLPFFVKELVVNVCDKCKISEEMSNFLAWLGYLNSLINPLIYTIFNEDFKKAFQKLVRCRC
# METHOD_NOTES: biochemical
# Type: CHO-K1 membranes
# Parameters: radioligand competition binding on cell membranes, filtration and TopCount scintillation counting
# SETTINGS: radioligand displacement; read-out: 5‐HT1F / pIC50 (converted)
Structures can show the parent of a compound that is named as a salt.
Each record here notes measured log10(IC50).
REPORTED_ENDPOINT: log10(IC50) (log10 of the value in nM)

# COMPOUND, log10(IC50)
measured = [
    ("CNC1CCc2[nH]c3ccc(C(N)=O)cc3c2C1 (racemic) [Frovatriptan racemate]", 2.50),
    ("CN(C)[C@@H]1CCc2[nH]c3ccc(NC(=O)c4ccc(F)cc4)cc3c2C1 [LY344864 hydrochloride]", 0.62),
    ("CNS(=O)(=O)CCc1ccc2[nH]cc(C3CCN(C)CC3)c2c1 [Naratriptan hydrochloride]", 0.67),
    ("CNS(=O)(=O)Cc1ccc2[nH]cc(CCCN3CCN(c4ncncc4OC)CC3)c2c1 [Avitriptan fumarate]", 2.31),
    ("CN1CCC[C@@H]1Cc1c[nH]c2ccc(CCS(=O)(=O)c3ccccc3)cc12 [Eletriptan hydrobromide]", 1.65),
]

###

# STUDY_TARGET: 5-HT1F receptor (Homo sapiens)
# Construct: gene HTR1F; full-length human recombinant receptor in CHO-K1 cells (Ogeda)
# METHOD_NOTES: cAMP HTRF, stably transfected CHO-K1 cells
# Assay type: cell-based
# SETTINGS: read-out: 5-HT1A / cAMP
pEC50: −log10 of the molar value. Counter-ions that a name gives are not always drawn.

# COMPOUND, STUDY_TARGET, pEC50
data = [
    ("N#Cc1ccc(N2CCN(C(=O)COc3ccc4[nH]cc(CCN)c4c3)CC2)cc1 [Donitriptan hydrochloride]", "5-HT1F receptor (Homo sapiens)", "< 5.00"),
]

###

Each record here notes measured Ki.
# STUDY_TARGET: 5-HT1A receptor (Homo sapiens)
# Construct: gene HTR1A; full-length human recombinant receptor in CHO-K1 cells (Ogeda); crude membranes
# Sequence (P08908 whole entry): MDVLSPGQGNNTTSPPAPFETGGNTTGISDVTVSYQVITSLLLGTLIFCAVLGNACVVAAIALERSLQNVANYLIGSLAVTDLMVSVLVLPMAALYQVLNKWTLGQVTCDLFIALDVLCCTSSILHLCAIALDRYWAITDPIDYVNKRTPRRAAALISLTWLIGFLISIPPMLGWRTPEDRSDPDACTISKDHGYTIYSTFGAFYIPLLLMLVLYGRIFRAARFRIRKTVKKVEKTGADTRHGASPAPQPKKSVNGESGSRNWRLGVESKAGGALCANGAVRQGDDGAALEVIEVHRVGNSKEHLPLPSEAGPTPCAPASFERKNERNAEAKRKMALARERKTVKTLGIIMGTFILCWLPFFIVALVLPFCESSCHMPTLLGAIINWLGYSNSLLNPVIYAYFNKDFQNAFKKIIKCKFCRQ
# METHOD_NOTES: radioligand competition, CHO-K1 membranes
# Type: binding
# SETTINGS: read-out: 5-HT1A / pKi (converted)
Where a name gives a salt, the structure may show the parent alone.

# MOLECULE, STUDY_TARGET, Ki, nM
data = [
    ("CNS(=O)(=O)CCc1ccc2[nH]cc(C3CCN(C)CC3)c2c1 [Naratriptan hydrochloride]", "5-HT1A receptor (Homo sapiens)", 15.1),
    ("CN1CCC[C@@H]1Cc1c[nH]c2ccc(CCS(=O)(=O)c3ccccc3)cc12 [Eletriptan hydrobromide]", "5-HT1A receptor (Homo sapiens)", 1.95),
    ("CNS(=O)(=O)Cc1ccc2[nH]cc(CCCN3CCN(c4ncncc4OC)CC3)c2c1 [Avitriptan fumarate]", "5-HT1A receptor (Homo sapiens)", 19.5),
    ("N#Cc1ccc(N2CCN(C(=O)COc3ccc4[nH]cc(CCN)c4c3)CC2)cc1 [Donitriptan hydrochloride]", "5-HT1A receptor (Homo sapiens)", 11.7),
]
